Target: T1, SNTG2, Q9NY99
T1 sequence (Q9NY99 68-166, limits assumed, looked up): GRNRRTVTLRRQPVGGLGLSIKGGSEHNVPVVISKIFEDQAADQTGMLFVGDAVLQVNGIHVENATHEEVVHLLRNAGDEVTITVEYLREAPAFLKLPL
Test: holdup assay
Set-up: key: below the threshold = too weak to quantify, mostly under pKd 3.1 to 4
Settings: plain residues with an end cap or a label only (N-terminal biotin on a linker: ttds)
measured_quantity: pKd

INSERT INTO assay_data (binder, measured_number) VALUES
  ('ERKLSSESQV [LRP4, O75096]', 4.1),
  ('IYVPEAQTRL [DLGAP4, Q9Y2H0]', 4.67),
  ('SSRTRRETQL [HPV16-E6, P03126]', 4.45),
  ('VLRLQSETSV [VANGL1, Q8TAA9]', 4.53),
  ('PKTPPTDTSV [KIR3DL3, Q8N743]', 3.73);

Every entry's value here was drawn from paper PMC9482650.
